Each recorded value in this set is attributed to patent US6403626B1.

target: α1B Human Adrenergic Receptor (Homo sapiens, UniProt P35368); construct: The entire coding region of α1B(1563 bp); expressed in transfected cells; host or cells: LM(tk-) cells; experiment: Equilibrium competition binding, [3H] prazosin, membranes of transfected LM(tk-) cells; conditions: cloned human receptor; [3H] prazosin; read-out: pKi Alpha-1 B (converted)
Sequence (P35368 whole entry): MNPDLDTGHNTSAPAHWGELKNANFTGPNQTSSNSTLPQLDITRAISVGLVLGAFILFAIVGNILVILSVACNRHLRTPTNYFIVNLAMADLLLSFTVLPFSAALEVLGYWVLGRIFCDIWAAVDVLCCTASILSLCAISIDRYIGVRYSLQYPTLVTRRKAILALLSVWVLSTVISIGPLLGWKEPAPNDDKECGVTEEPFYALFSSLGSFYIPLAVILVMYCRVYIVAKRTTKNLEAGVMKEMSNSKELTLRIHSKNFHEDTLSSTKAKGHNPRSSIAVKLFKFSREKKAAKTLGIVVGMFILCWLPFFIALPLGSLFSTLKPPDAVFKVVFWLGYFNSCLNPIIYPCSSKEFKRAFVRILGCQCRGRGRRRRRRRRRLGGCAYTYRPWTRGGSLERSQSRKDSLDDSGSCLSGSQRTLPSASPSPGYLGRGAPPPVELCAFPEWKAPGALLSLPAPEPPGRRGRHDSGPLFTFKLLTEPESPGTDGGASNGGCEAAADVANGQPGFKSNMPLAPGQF
# label = criterion met if Ki < 40 µM else criterion not met

Q: Please indicate whether the reported Ki of CC(C)Cn1cnc2c(Br)c(NC3=NCCN3)ccc21 is strictly below 40 µM.
Ans: criterion met

Q: Please indicate whether the reported Ki of NCCn1cnc2c(Br)c(NC3=NCCN3)ccc21 is strictly below 40 µM.
Ans: criterion met

Q: Please indicate whether the reported Ki of c1cc2c(cc1NC1=NCCN1)ncn2C1CCCC1 is strictly below 40 µM.
Ans: criterion not met

Q: Please indicate whether the reported Ki of CCCn1cnc2ccc(NC3=NCCN3)cc21 is strictly below 40 µM.
Ans: criterion met

Q: Please indicate whether the reported Ki of Brc1c(NC2=NCCN2)ccc2c1ncn2C1CCCC1 is strictly below 40 µM.
Ans: criterion not met

Q: Please indicate whether the reported Ki of Clc1c(NC2=NCCN2)ccc2nc[nH]c12 is strictly below 40 µM.
Ans: criterion met
